A collection of sequences and their measured solubility in G1/S (log2)
- Test system: HeLa Kyoto
- experimental-protocol: solubility in G1/S (NP-40 vs SDS abundance) (log2 ratio); higher = more soluble
- cond: cell cycle stage: G1/S
Reply with the value as a number alone.

Worked cases, solubility in G1/S (log2) given:
MAAYSYRPGPGAGPGPAAGAALPDQSFLWNVFQRVDKDRSGVISDTELQQALSNGTWTPFNPVTVRSIISMFDRENKAGVNFSEFTGVWKYITDWQNVFRTYDRDNSGMIDKNELKQALSGFGYRLSDQFHDILIRKFDRQGRGQIAFDDFIQGCIVLQRLTDIFRRYDTDQDGWIQVSYEQYLSMVFSIV [PDCD6]; 0.15
MNRLPDDYDPYAVEEPSDEEPALSSSEDEVDVLLHGTPDQKRKLIRECLTGESESSSEDEFEKEMEAELNSTMKTMEDKLSSLGTGSSSGNGKVATAPTRYYDDIYFDSDSEDEDRAVQVTKKKKKKQHKIPTNDELLYDPEKDNRDQAWVDAQRRGYHGLGPQRSRQQQPVPNSDAVLNCPACMTTLCLDCQRHESYKTQYRAMFVMNCSINKEEVLRYKASENRKKRRVHKKMRSNREDAAEKAETDVEEIYHPVMCTECSTEVAVYDKDEVFHFFNVLASHS [EAPP]; 0.159
MESGFTSKDTYLSHFNPRDYLEKYYKFGSRHSAESQILKHLLKNLFKIFCLDGVKGDLLIDIGSGPTIYQLLSACESFKEIVVTDYSDQNLQELEKWLKKEPEAFDWSPVVTYVCDLEGNRVKGPEKEEKLRQAVKQVLKCDVTQSQPLGAVPLPPADCVLSTLCLDAACPDLPTYCRALRNLGSLLKPGGFLVIMDALKSSYYMIGEQKFSSLPLGREAVEAAVKEAGYTIEWFEVISQSYSSTMANNEGLFSLVARKLSRPL [NNMT]; 0.584

Now, please, on to the next sequence.
Briefly, solubility in G1/S (log2) measured for MAGQEDPVQREIHQDWANREYIEIITSSIKKIADFLNSFDMSCRSRLATLNEKLTALERRIEYIEARVTKGETLT [BRK1] : -0.551

====

A collection of sequences and their measured thermal stability score
- System: HeLa Kyoto
- experimental-protocol: thermal stability score vs G1/S (z-score of summed log2 fold changes over temperatures); higher = more thermally stable than in G1/S
- cond: cell cycle stage: early G1 (4.5 h after nocodazole release)

Worked cases, thermal stability score given:
MSTAREQPIFSTRAHVFQIDPATKRNWIPAGKHALTVSYFYDATRNVYRIISIGGAKAIINSTVTPNMTFTKTSQKFGQWADSRANTVYGLGFASEQHLTQFAEKFQEVKEAARLAREKSQDGGELTSPALGLASHQVPPSPLVSANGPGEEKLFRSQSADAPGPTERERLKKMLSEGSVGEVQWEAEFFALQDSNNKLAGALREANAAAAQWRQQLEAQRAEAERLRQRVAELEAQAASEVTPTGEKEGLGQGQSLEQLEALVQTKDQEIQTLKSQTGGPREALEAAEREETQQKVQDLETRNAELEHQLRAMERSLEEARAERERARAEVGRAAQLLDVSLFELSELREGLARLAEAAP [HOMER3]; -1.1
MSLKLQASNVTNKNDPKSINSRVFIGNLNTALVKKSDVETIFSKYGRVAGCSVHKGYAFVQYSNERHARAAVLGENGRVLAGQTLDINMAGEPKPDRPKGLKRAASAIYSGYIFDYDYYRDDFYDRLFDYRGRLSPVPVPRAVPVKRPRVTVPLVRRVKTNVPVKLFARSTAVTTSSAKIKLKSSELQAIKTELTQIKSNIDALLSRLEQIAAEQKANPDGKKKGDGGGAGGGGGGGGSGGGGSGGGGGGGSSRPPAPQENTTSEAGLPQGEARTRDDGDEEGLLTHSEEELEHSQDTDADDGALQ [RALY]; 2.9
MSTAQSLKSVDYEVFGRVQGVCFRMYTEDEARKIGVVGWVKNTSKGTVTGQVQGPEDKVNSMKSWLSKVGSPSSRIDRTNFSNEKTISKLEYSNFSIRY [ACYP2]; -0.285
MHRRGVGAGAIAKKKLAEAKYKERGTVLAEDQLAQMSKQLDMFKTNLEEFASKHKQEIRKNPEFRVQFQDMCATIGVDPLASGKGFWSEMLGVGDFYYELGVQIIEVCLALKHRNGGLITLEELHQQVLKGRGKFAQDVSQDDLIRAIKKLKALGTGFGIIPVGGTYLIQSVPAELNMDHTVVLQLAEKNGYVTVSEIKASLKWETERARQVLEHLLKEGLAWLDLQAPGEAHYWLPALFTDLYSQEITAEEAREALP [SNF8]; -0.788

Now, please, on to the next sequence.
Briefly, thermal stability score measured for MKDVPGFLQQSQNSGPGQPAVWHRLEELYTKKLWHQLTLQVLDFVQDPCFAQGDGLIKLYENFISEFEHRVNPLSLVEIILHVVRQMTDPNVALTFLEKTREKVKSSDEAVILCKTAIGALKLNIGDLQVTKETIEDVEEMLNNLPGVTSVHSRFYDLSSKYYQTIGNHASYYKDALRFLGCVDIKDLPVSEQQERAFTLGLAGLLGEGVFNFGELLMHPVLESLRNTDRQWLIDTLYAFNSGNVERFQTLKTAWGQQPDLAANEAQLLRKIQLLCLMEMTFTRPANHRQLTFEEIAKSAKITVNEVELLVMKALSVGLVKGSIDEVDKRVHMTWVQPRVLDLQQIKGMKDRLEFWCTDVKSMEMLVEHQAHDILT [PSMD13] : 1.44

These measurements were taken from the supplement of paper PMC5998384.
